Ref: ChEMBL document CHEMBL4765447

- assay: Cmax in Balb/c mouse at 50 mg/kg, po by LC-MS analysis
- Format: ADME, organism-based
- Set-up: route oral, dose 50 mg/kg
- condition: in vivo
readout.label: Cmax (µg/mL)

> print(dat)
                                   compound  readout.label  measured.result
1  O=c1c(NCc2ccccn2)c(Nc2ccc3c(c2)OCO3)c1=O           Cmax             1.33

---

- assay: AUC (0 to t) in Balb/c mouse at 5 mg/kg, iv by LC-MS analysis
- Type: ADME, organism-based
- Design: dose 5 mg/kg
- condition: in vivo
readout.label: AUC(0-t)

> print(dat)
                                   compound  readout.label  measured.result
1  O=c1c(NCc2ccccn2)c(Nc2ccc3c(c2)OCO3)c1=O       AUC(0-t)     1670 ng·h/mL
